- system.tested: Nuclear receptor coactivator 1 (Homo sapiens)
- assay.text: SRC1 coactivator transcriptional activity inhibitors, dose response, counter-screen for SRC3 inhibitor project, cell-based, luminescence (AID 602168)
- run.conditions: Cell-based SRC1 luciferase reporter
The source made the active and inactive calls. How the calls were made is not given here.
Possible outcomes: t for active, f for inactive

| compound | label.class |
| --- | --- |
| NC(=O)c1cc(Sc2ccccc2)nc2ccccc12 | f |
| Cc1nc(N)nc(N)c1-c1ccc(Cl)c(Cl)c1 | t |
| COc1ccc(OC)c(N/C=C/C(=O)c2ccccc2)c1 | f |
| CC(=O)/C(N=Nc1ccc2c(c1)OCCO2)=C(\C)O | f |
| C=CCn1c(O)c(C(C)=NCc2cc(OC)cc(OC)c2)c(=O)[nH]c1=O | f |
| COC(CN(C(=O)CCl)C(C(=O)NC1CCCCC1)c1ccccc1C)OC (stereo unspecified) | f |
| O=C(COC(=O)c1ccc[nH]c1=O)Nc1ccc(N2CCCCC2)cc1 | f |
| O=C(NC1CCCCC1)C(c1cccnc1)N(C(=O)CCl)c1cccc(Cl)c1 (stereo unspecified) | f |
| COc1cccc2c1C(=N)c1c(O)c3c(c(O)c1C2=O)CC(O)(C(C)=O)CC3OC1CC(N)C(O)C(C)O1 (stereo unspecified) | f |
| CC1CCN(C2=NC(=O)/C(=C/c3ccccc3F)S2)CC1 | f |
| O=c1[nH]cnc2c1nnn2C1OC(CO)C(O)C1O (stereo unspecified) | f |

###

- system.tested: Nuclear receptor coactivator 1 (Homo sapiens)
- assay.text: SRC1 coactivator transcriptional activity inhibitors, dose response, counter-screen for SRC3 inhibitor project, cell-based, luminescence (AID 602168)
- run.conditions: Cell-based SRC1 luciferase reporter
Calls of active or inactive are those of the source. The rule behind the calls is not given here.
Outcome codes: Yes (active), No (inactive)

| molecule | label.class |
| --- | --- |
| CC1(C)N=C(N)N=C(N)N1CCCCc1ccccc1 | Yes |
| COc1cccc(F)c1C(C[N+](=O)[O-])c1c(N)n(C)c(=O)n(C)c1=O (stereo not given) | No |
| Cc1sc2ncnc(N3CCC(C(=O)Nc4ccccc4C(C)(C)C)CC3)c2c1C | Yes |
| Clc1ccc(-c2csc3ncnc(NCCN4CCOCC4)c23)cc1 | No |
| CS(=O)(=O)c1ccc(Sc2nc3ccccc3s2)c([N+](=O)[O-])c1 | No |
| O=C(OCc1ccccc1)c1ccc(NCc2cc(O)ccc2O)cc1 | No |
| O=C(N/N=C(\c1ccccc1)c1ccccn1)c1ccccc1Cl | No |
| O=C(N/N=C/c1cc(Br)c(Br)s1)c1ccncc1 | No |
| COc1ccc(OC)c(Cc2cnc3nc(N)nc(N)c3c2C)c1 | No |
| CC(=O)Nc1ccc(SCC(=O)c2cc(C)n(-c3ccccc3)c2C)cc1 | No |
| CCN(c1cccc(C)c1)c1ncnc2nc[nH]c12 | No |
| C/C(=N\NC(=S)Nc1cc(S(=O)(=O)N2CCOCC2)ccc1Cl)c1ccccc1F | No |
| NC(=S)N/N=C1\CCSc2ccc(Cl)cc21 | No |
| Cc1c(CC(=O)NCCCC(=O)O)c(=O)oc2cc3c(cc12)CCC(C)(C)O3 | Yes |
| NS(=O)(=O)c1ccc(Sc2nc3ccccc3s2)c([N+](=O)[O-])c1 | No |
| O=c1[nH]c(O)c(N=Nc2ccc3c(c2)OCCO3)c(=O)[nH]1 | No |
| O=C(N/N=C\c1ccc([N+](=O)[O-])o1)C1COc2ccccc2O1 (stereo not given) | No |
| CCCC(=O)NC(c1ccc(Cl)cc1Cl)c1ccc2cccnc2c1O (stereo not given) | Yes |
| COc1ccccc1N(C(=O)CCl)c1cn(C(C)=O)c2ccccc12 | No |
| Cc1cccc(Oc2sc(C(=O)c3ccccc3)c(N)c2C#N)c1 | No |
| NC(=S)N/N=C1\CCOc2ccc(Cl)cc21 | No |
| O=C(CCCc1nc(-c2ccccc2Cl)no1)NC1CCCC1 | No |
| Brc1ccc2ncc3ccccc3c2c1 | No |
| O=C(NCCc1ccccc1)c1ccc2c(c1)OCCO2 | No |
| COc1cc(NS(C)(=O)=O)ccc1Nc1c2ccccc2nc2ccccc12 | No |
| COc1cc(C(=O)OCC(=O)Nc2sccc2C(N)=O)cc(OC)c1OC | No |
| CC(C)(C)c1cc(C(=O)N/N=C/c2ccc(O)cc2)n(-c2ccccc2)n1 | No |
| CC(=O)c1cccc(-c2csc3ncnc(Sc4nnnn4C)c23)c1 | No |
| Cc1ncc(CO)c(/C=N/NC(=O)c2cc3c(s2)CCCC3)c1O | No |
| COc1ccc(/C=C2\CN(Cc3ccccc3)C/C(=C\c3ccc(OC)c(O)c3)C2=O)cc1O | No |
| CCn1c2ccccc2c2cnc(N=CN(C)C)c(C#N)c21 | No |
| CN(C)c1ccc(/C=C/c2ccc3ccccc3n2)cc1 | No |
| CCOc1ccccc1-n1c(SCC(=O)Nc2ccccc2C(=O)O)nc2ccccc2c1=O | No |
| O=C(Nc1ccccc1Oc1ccccc1)c1cc([N+](=O)[O-])ccc1Cl | No |
| Cn1cnc([N+](=O)[O-])c1Sc1nc(N)nc2c1ncn2C1OC(CO)C(O)C1O (stereo not given) | No |
| O=S(=O)(c1ccc(F)cc1)c1snnc1-c1ccccc1 | No |
| COc1ccc(-n2cnc3c(sc4nccc(N(C)C)c43)c2=O)cc1 | No |
| C=CCOn1c(C)c(C(C)=O)c2c3nonc3ccc21 | Yes |
| OCCN1CCN(C(=S)c2ccc(-c3ccccc3)cc2)CC1 | Yes |
| COc1ccc(COC(=O)C2=C(C)NC(=O)NC2c2ccc(F)cc2)cc1 (stereo not given) | No |
| CN(C)c1ccc(C(=S)Nc2ccccc2)cc1 | No |
| O=S(=O)(/C(=C\c1ccc(C(F)(F)F)cc1)c1nc2ccccc2[nH]1)c1ccccc1 | No |
| O=C(CC1CS(=O)(=O)CC1CC(=O)Nc1ccc2c(c1)OCCO2)Nc1ccc2c(c1)OCCO2 (stereo not given) | No |
| CC[C@@]1(O)C(=O)OCc2c1cc1n(c2=O)Cc2cc3c(NC(=O)CN)cccc3nc2-1 | Yes |
| Cc1ccc(/C=C2/SC(=S)N(CCCC(=O)Nc3ccc(O)cc3)C2=O)cc1 | No |
